Experimental System: B-Raf (V600E)-kinase (Homo sapiens (Human), UniProt P15056, V600E)
Sequence (P15056 whole entry V600E): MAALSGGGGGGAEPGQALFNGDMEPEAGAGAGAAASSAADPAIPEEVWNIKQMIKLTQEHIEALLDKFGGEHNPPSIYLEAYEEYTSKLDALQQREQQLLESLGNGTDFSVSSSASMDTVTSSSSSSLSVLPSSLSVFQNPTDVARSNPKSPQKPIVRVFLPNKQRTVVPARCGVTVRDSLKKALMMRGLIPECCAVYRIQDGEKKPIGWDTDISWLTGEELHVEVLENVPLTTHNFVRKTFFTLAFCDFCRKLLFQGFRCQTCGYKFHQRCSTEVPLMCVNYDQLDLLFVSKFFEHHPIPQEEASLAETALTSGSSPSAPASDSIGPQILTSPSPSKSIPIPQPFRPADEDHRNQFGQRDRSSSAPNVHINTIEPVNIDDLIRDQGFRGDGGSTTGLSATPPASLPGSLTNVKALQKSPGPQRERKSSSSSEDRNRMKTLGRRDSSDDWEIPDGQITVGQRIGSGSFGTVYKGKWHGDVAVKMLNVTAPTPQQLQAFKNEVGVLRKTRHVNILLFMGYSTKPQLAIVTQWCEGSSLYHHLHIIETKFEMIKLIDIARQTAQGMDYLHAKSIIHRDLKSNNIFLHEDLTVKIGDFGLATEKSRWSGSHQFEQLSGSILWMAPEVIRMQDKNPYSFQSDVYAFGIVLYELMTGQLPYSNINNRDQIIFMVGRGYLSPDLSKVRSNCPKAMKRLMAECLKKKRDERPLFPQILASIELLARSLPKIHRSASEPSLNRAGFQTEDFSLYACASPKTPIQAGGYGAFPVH
Method Summary: Kinase test B-RAF (V600E)
Assay type: biochemical
Condition Info: B-RAF (V600E) kinase test, 250 μM ATP
Measured pIC50 values are reported for all entries that follow.
// returns pIC50 (minus log10 of molar concentration), number only

CN(C)c1ncc2ncnc(Nc3cc(C(=O)Nc4cc(C(C)(C)C)on4)ccc3Cl)c2n1 = 8.22
Cc1ccc(C(=O)Nc2cc(CN3CCCC3)cc(C(F)(F)F)c2)cc1Nc1ncnc2cnc(NCCF)nc12 = 9.00
Cc1ccc(C(=O)Nc2cc(C(C)(C)C)on2)cc1Nc1ncnc2cnc(N3CCN(C4CCN(C)CC4)CC3)nc12 = 8.40
Cc1ccc(C(=O)Nc2cc(C(C)(C)C)nn2C)cc1Nc1ncnc2c(N)nc(N3CCN(C)CC3)nc12 = 7.92
Cc1ccc(C(=O)Nc2cc(CN3CCCC3)cc(C(F)(F)F)c2)cc1Nc1ncnc2cnc(N3CC[C@H](F)C3)nc12 = 8.70
Cc1ccc(C(=O)Nc2cccc(C(C)(C)C#N)c2)cc1Nc1ncnc2cnc(N3CCOCC3)nc12 = 9.00
Cc1ccc(C(=O)Nc2cc(C(C)(C)C)on2)cc1Nc1ncnc2cnc(N(C)CC3CCOC3)nc12 (stereo not drawn) = 8.52
Cc1ccc(C(=O)NCc2ccc(C(C)(C)C)cc2)cc1Nc1ncnc2cnc(N(C)CCN(C)C)nc12 = 6.24

GET /values?item= `CCN1CCN(c2cc(NC(=O)c3ccc(C)c(Nc4ncnc5c(N)nc(N(C)C)nc45)c3)cc(C(F)(F)F)c2)CC1` &system= B-Raf (V600E)-kinase (Homo sapiens (Human), UniProt P15056, V600E) returns pIC50: 7.72

GET /values?item= `Cc1ccc(C(=O)Nc2cc(C(F)(F)F)ccn2)cc1Nc1ncnc2cnc(N3CCCN(C)CC3)nc12` &system= B-Raf (V600E)-kinase (Homo sapiens (Human), UniProt P15056, V600E) returns pIC50: 8.52

GET /values?item= `Cc1ccc(C(=O)Nc2cc(N3CCN(C(C)C)CC3)cc(C(F)(F)F)c2)cc1Nc1ncnc2cnc(N3CC[C@H](F)C3)nc12` &system= B-Raf (V600E)-kinase (Homo sapiens (Human), UniProt P15056, V600E) returns pIC50: 8.52

GET /values?item= `COc1ccc(NC(=O)c2ccc(C)c(Nc3ncnc4cnc(N5CCN(CCN6CCOCC6)CC5)nc34)c2)cc1C(F)(F)F` &system= B-Raf (V600E)-kinase (Homo sapiens (Human), UniProt P15056, V600E) returns pIC50: 7.77

GET /values?item= `Cc1ccc(C(=O)NCc2ccc(C(C)(C)C)cc2)cc1Nc1ncnc2cnc(N3CCOCC3)nc12` &system= B-Raf (V600E)-kinase (Homo sapiens (Human), UniProt P15056, V600E) returns pIC50: 6.94

GET /values?item= `Cc1ccc(NC(=O)c2cccc(C(F)(F)F)c2)cc1Nc1ncnc2c(N)nc(N3CCN(C4CCN(C)CC4)CC3)nc12` &system= B-Raf (V600E)-kinase (Homo sapiens (Human), UniProt P15056, V600E) returns pIC50: 8.70

GET /values?item= `Cc1ccc(C(=O)Nc2cccc(S(=O)(=O)N(C)C)c2)cc1Nc1ncnc2cnc(N(C)CCN(C)C)nc12` &system= B-Raf (V600E)-kinase (Homo sapiens (Human), UniProt P15056, V600E) returns pIC50: 7.23

GET /values?item= `Cc1ccc(NC(=O)c2cccc(C(F)(F)F)c2)cc1Nc1ncnc2c(N)nc(NCc3ccccn3)nc12` &system= B-Raf (V600E)-kinase (Homo sapiens (Human), UniProt P15056, V600E) returns pIC50: 7.02

---

Experimental System: B-Raf (V600E)-kinase (Homo sapiens (Human), UniProt P15056, V600E)
Method Summary: Kinase test B-RAF (V600E)
Type: biochemical
Condition Info: B-RAF (V600E) kinase test, 250 μM ATP
Values of IC50 strictly less than 4 nM map to 1.0, and values of at least 4 nM map to 0.0.

Could you please tell me whether IC50 recorded for Cc1ccc(NC(=O)c2cccc(C(F)(F)F)c2)cc1Nc1ncnc2c(N)nc(N(C)C)nc12 [II-7] is less than 4 nM?
0.0

Could you please tell me whether IC50 recorded for Cc1ccc(C(=O)Nc2ccc(F)c(C(F)(F)F)c2)cc1Nc1ncnc2cnc(N(C)CCN(C)C)nc12 [III-231] is less than 4 nM?
0.0

Could you please tell me whether IC50 recorded for Cc1ccc(NC(=O)c2cccc(C(F)(F)F)c2)cc1Nc1ncnc2c(N)nc(N3CCNCC3)nc12 [II-19] is less than 4 nM?
0.0

Could you please tell me whether IC50 recorded for COc1ccc(C(C)(C)C)cc1NC(=O)c1ccc(C)c(Nc2ncnc3cnc(N4CCNCC4)nc23)c1 [III-343] is less than 4 nM?
1.0

Could you please tell me whether IC50 recorded for CCN1CCN(c2cc(NC(=O)c3ccc(C)c(Nc4ncnc5c(N)nc(N6CCOCC6)nc45)c3)cc(C(F)(F)F)c2)CC1 [I-77] is less than 4 nM?
1.0

Could you please tell me whether IC50 recorded for COCCN(C)c1ncc2ncnc(Nc3cc(C(=O)Nc4ccc(OC)c(C(F)(F)F)c4)ccc3C)c2n1 [III-473] is less than 4 nM?
1.0

---

Experimental System: B-Raf (V600E)-kinase (Homo sapiens (Human), UniProt P15056, V600E)
Method Summary: Kinase test B-RAF (V600E)
Type: biochemical
Condition Info: B-RAF (V600E) kinase test, 250 μM ATP
Recorded IC50 split into classes group 1: < 2 nM; group 2: ≥ 2 nM and < 7 nM; group 3: ≥ 7 nM

The examples below pair each entry with its known result.
Cc1ccc(C(=O)NCc2cccc(C(F)(F)F)c2)cc1Nc1ncnc2cnc(N3CCN(C)CC3)nc12 = group 3
Cc1ccc(C(=O)Nc2cccc(C(C)(C)C#N)c2)cc1Nc1ncnc2cnc(N3CCCC3)nc12 = group 2
Cc1ccc(NS(=O)(=O)CCC(C)C)cc1Nc1ncnc2cnc(N3CCN(C)CC3)nc12 = group 3
COc1ccc(C(F)(F)F)cc1NC(=O)c1ccc(C)c(Nc2ncnc3cnc(N(C)CCN(C)C)nc23)c1 = group 3
Cc1ccc(C(=O)NCc2ccc(C(C)(C)C)cc2)cc1Nc1ncnc2cnc(N3CCCN(C)CC3)nc12 = group 3

Categorize the following entry: COc1ccc(NC(=O)c2ccc(C)c(Nc3ncnc4cnc(NCC5CCCCO5)nc34)c2)cc1C(F)(F)F (stereo not drawn)
group 1

Categorize the following entry: `CN1CCC(CN2CCN(c3ncc4ncnc(Nc5cc(C(=O)Nc6cc(C(C)(C)C)on6)ccc5F)c4n3)CC2)CC1`
group 1

Categorize the following entry: Cc1ccc(C(=O)Nc2cc(C(C)(C)C)on2)cc1Nc1ncnc2cnc(N(C)CC3CCCCO3)nc12 (stereo not drawn)
group 2

---

Measured log10(IC50) values are reported for all entries that follow.
Experimental System: B-Raf (V600E)-kinase (Homo sapiens (Human), UniProt P15056, V600E)
Method Summary: Kinase test B-RAF (V600E)
Assay type: biochemical
Condition Info: B-RAF (V600E) kinase test, 250 μM ATP
Parameter value (number): base-10 log of IC50 in nM.

Solved entries:
COc1ccc(NC(=O)c2ccc(C)c(Nc3ncnc4cnc(-n5cnc(C)c5)nc34)c2)cc1C(F)(F)F = 0.90
Cc1ccc(C(=O)Nc2cc(C(C)(C)C)nn2C)cc1Oc1ncnc2cnc(N3CCOCC3)nc12 = 0.00
Cc1ccc(C(=O)NCc2cccc(C(F)(F)F)c2)cc1Nc1ncnc2cnc(N(C)CCN(C)C)nc12 = 2.99
Cc1ccc(C(=O)Nc2cc(C(C)(C)C)on2)cc1Nc1ncnc2cnc(N3CCC4(CCN(C)C4)C3)nc12 (stereo not shown) = 0.00
Cc1ccc(C(=O)Nc2cc(N3CCN(C)CC3)cc(C(F)(F)F)c2)cc1Nc1ncnc2cnc(N(C)CCF)nc12 = 0.30

Summary for this compound, `Cc1ccc(C(=O)NC2CCCCC2)cc1Nc1ncnc2cnc(N3CCOCC3)nc12` : log10(IC50) is 3.15

Summary for this compound, `CNc1ncc2ncnc(Nc3cc(C(=O)Nc4cc(C(C)(C)C)on4)ccc3F)c2n1` : log10(IC50) is 0.78

Summary for this compound, `COc1ccc(NC(=O)c2ccc(C)c(Nc3ncnc4c(N)nc(N5CCCN(C)CC5)nc34)c2)cc1C(F)(F)F` : log10(IC50) is 0.00

Summary for this compound, `Cc1ccc(C(=O)Nc2cc(OCCN(C)C)cc(C(F)(F)F)c2)cc1Nc1ncnc2cnc(N3CCSCC3)nc12` : log10(IC50) is 0.48

---

Experimental System: B-Raf (V600E)-kinase (Homo sapiens (Human), UniProt P15056, V600E)
Method Summary: Kinase test B-RAF (V600E)
Type: biochemical
Condition Info: B-RAF (V600E) kinase test, 250 μM ATP
Parameter Measured: log10(IC50) (log10 of the value in nM)
Parameter value (number): base-10 log of IC50 in nM.

Solved entries:
Cc1ccc(C(=O)Nc2cc(C(C)(C)C)on2)cc1Nc1ncnc2cnc(NCC3CCOC3)nc12 (stereo not shown) = 0.30
Cc1ccc(C(=O)Nc2cc(N3CCN(C)CC3)cc(C(F)(F)F)c2)cc1Nc1ncnc2cnc(N3CC[C@H](F)C3)nc12 = 0.60
Cc1ccc(C(=O)NCc2ccc(C(C)(C)C)cc2)cc1Nc1ncnc2cnc(N3CCCC3)nc12 = 2.92
COCCN1CCN(c2nc(N)c3ncnc(Nc4cc(C(=O)Nc5cc(C(C)(C)C)n[nH]5)ccc4C)c3n2)CC1 = 0.70

Proceeding to the next molecule to report its log10(IC50).
Summary for this molecule, `Cc1ccc(C(=O)Nc2ccc(F)c(C(F)(F)F)c2)cc1Nc1ncnc2cnc(N3CCCCC3)nc12` : log10(IC50) is 1.23
